Below, each of the compounds is paired with its reported pEC50 value.
Biological target: human FPR1 (Homo sapiens (Human), UniProt P21462)
Sequence (P21462 whole entry): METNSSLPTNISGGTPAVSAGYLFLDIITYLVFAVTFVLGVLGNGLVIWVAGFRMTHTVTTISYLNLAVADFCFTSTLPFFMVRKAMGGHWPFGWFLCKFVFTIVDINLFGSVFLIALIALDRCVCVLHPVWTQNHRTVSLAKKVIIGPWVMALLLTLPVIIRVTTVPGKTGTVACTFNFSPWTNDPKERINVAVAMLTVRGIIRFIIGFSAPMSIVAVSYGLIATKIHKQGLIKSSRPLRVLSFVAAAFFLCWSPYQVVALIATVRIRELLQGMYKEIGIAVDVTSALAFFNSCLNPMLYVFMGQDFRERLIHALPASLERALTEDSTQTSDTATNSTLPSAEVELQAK
Test: FPR1 cyclic adenosine monophosphate (cAMP) assay
Assay type: cell-based
Conditions: CHO cells overexpressing human FPR1; forskolin 10 µM; inhibition of cAMP production; read-out: hFPR1 cAMP EC50
Procedure: N-formyl peptide receptors (FPRs) are a family of chemo attractant receptors that facilitate leukocyte response during inflammation. FPRs belong to the seven-transmembrane G protein-coupled receptor superfamily and are linked to inhibitory G-proteins (Gi). […] FPR2 and FPR1 Cyclic Adenosine Monophosphate (cAMP) Assays. […] The level of intracellular cAMP was determined using the HTRF HiRange cAMP assay reagent kit (Cisbio) according to manufacturer’s instruction. […]
pEC50: −log10 of the molar value.

COMPOUND	LIMIT_QUALIFIER	pEC50
COc1ccc([C@@H]2CN(c3c(C)ccn(CC4CC4)c3=O)C(=O)[C@H]2NC(=O)c2ccc(OC(F)F)cc2)c(F)c1	=	9.10
COc1cc(F)c([C@@H]2CN(c3cccc(P(C)(C)=O)n3)C(=O)[C@H]2NC(=O)c2ccc(Cl)cc2)c(F)c1	=	6.41
COc1cc(F)c([C@@H]2CN(c3cc(F)cc(OC(C)C)c3)C(=O)[C@H]2NC(=O)c2ccc(OC(F)(F)F)cc2)c(F)c1	=	7.37
COc1cc(F)c([C@@H]2CN(c3cccn(CC(O)CO)c3=O)C(=O)[C@H]2NC(=O)c2ccc(OC(F)F)cc2)c(F)c1 (stereo partly shown) [Example 681]	=	6.00
COc1cc(F)c([C@@H]2CN(c3cccn(C4CC4)c3=O)C(=O)[C@H]2NC(=O)c2ccc(C(F)(F)F)cc2)c(F)c1	=	7.47
COc1cc(N2C[C@@H]3C[C@H]2CN3C)nc(N2C(=O)[C@@H](NC(=O)c3ccc(Cl)cc3)[C@H](c3c(F)cc(OC)cc3F)[C@@H]2C)c1	<	5.00
COc1cc(F)c([C@@H]2CN(c3cccn4cc(C(C)C)nc34)C(=O)[C@H]2NC(=O)c2ccc(Cl)cc2)c(F)c1	=	5.96
CCn1ccc(C)c(N2C[C@@H](c3c(F)cc(OC)cc3F)[C@H](NC(=O)c3ccc(OC(F)(F)F)cc3)C2=O)c1=O	=	8.92
COCC(CO)n1ccc(C)c(N2C[C@@H](c3ccc(OC)cc3)[C@H](NC(=O)c3ccc(OC(F)F)cc3)C2=O)c1=O (stereo partly shown)	>	8.30
COc1cc(F)c([C@@H]2CN(c3cccn(CC(C)OC)c3=O)C(=O)[C@H]2NC(=O)c2ccc(OC(F)(F)F)cc2)c(F)c1 (stereo partly shown) [Example 103]	=	8.72
COc1cc(F)c([C@@H]2CN(c3cncn(CCO)c3=O)C(=O)[C@H]2NC(=O)c2ccc(OC(F)F)cc2)c(F)c1	=	6.10
CCn1cc(F)cc(N2C[C@@H](c3c(F)cc(OC)cc3F)[C@H](NC(=O)c3ccc(OC(F)(F)F)cc3)C2=O)c1=O	=	7.06
COc1cc(F)c([C@@H]2CN(c3c(C)ccn(C4CCN(C)C4)c3=O)C(=O)[C@H]2NC(=O)c2ccc(OC(F)F)cc2)c(F)c1 (stereo partly shown) [Example 507]	=	6.82

###

Below, each of the compounds is paired with its reported pEC50 value.
target: human FPR1 (Homo sapiens (Human), UniProt P21462); assay: FPR1 cyclic adenosine monophosphate (cAMP) assay; settings: CHO cells overexpressing human FPR1; forskolin 10 µM; inhibition of cAMP production; read-out: hFPR1 cAMP EC50
pEC50: −log10 of the molar value.

COMPOUND	MEASUREMENT_TARGET	LIMIT_QUALIFIER	pEC50
CCn1ccc(N2C[C@@H](c3c(F)cc(OC)cc3F)[C@H](NC(=O)c3ccc(OC(F)(F)F)cc3)C2=O)n1 [Example 649]	human FPR1 (Homo sapiens (Human), UniProt P21462)	=	8.11
COc1cc(F)c([C@@H]2CN(c3cccn4c(C)nnc34)C(=O)[C@H]2NC(=O)c2ccc(OC(F)F)cc2)c(F)c1 [Example 599]	human FPR1 (Homo sapiens (Human), UniProt P21462)	=	7.40
COc1cc(F)c([C@@H]2CN(c3cnn4c3OCCC4)C(=O)[C@H]2NC(=O)c2ccc(Cl)cc2)c(F)c1 [Example 596]	human FPR1 (Homo sapiens (Human), UniProt P21462)	=	6.07
COc1cc(F)c([C@@H]2CN(c3cccc(=O)n3C)C(=O)[C@H]2NC(=O)c2ccc(OC(F)(F)F)cc2)c(F)c1 [Example 11]	human FPR1 (Homo sapiens (Human), UniProt P21462)	=	7.07
COCC(CO)n1cccc(N2C[C@@H](c3ccc(Cl)cc3)[C@H](NC(=O)c3ccc(Cl)cc3)C2=O)c1=O (stereo partly shown) [Example 406]	human FPR1 (Homo sapiens (Human), UniProt P21462)	=	8.05
COc1cc(C2CCN(CC(F)(F)F)CC2)nc(N2C(=O)[C@@H](NC(=O)c3ccc(OC(F)F)cc3)[C@H](c3c(F)cc(OC)cc3F)[C@@H]2C)c1 [Example 548]	human FPR1 (Homo sapiens (Human), UniProt P21462)	<	5.30
COc1cc(F)c([C@@H]2CN(c3ccc(C)n(C)c3=O)C(=O)[C@H]2NC(=O)c2ccc(OC(F)F)cc2)c(F)c1 [Example 324]	human FPR1 (Homo sapiens (Human), UniProt P21462)	=	6.89
CCn1ccc(F)c(N2C[C@@H](c3c(F)cc(OC)cc3F)[C@H](NC(=O)c3ccc(OC(F)F)cc3)C2=O)c1=O [Example 373]	human FPR1 (Homo sapiens (Human), UniProt P21462)	=	6.63
COc1cc(F)c([C@@H]2CN(c3nccc(N4C[C@@H](C)N(C)[C@@H](C)C4)c3C(F)(F)F)C(=O)[C@H]2NC(=O)c2ccc(OC(F)F)cc2)c(F)c1 [Example 109]	human FPR1 (Homo sapiens (Human), UniProt P21462)	=	6.30
COc1cc(F)c([C@@H]2CN(c3c(C)ccn(CC4CCO4)c3=O)C(=O)[C@H]2NC(=O)c2ccc(OC(F)(F)F)cc2)c(F)c1 (stereo partly shown) [Example 615]	human FPR1 (Homo sapiens (Human), UniProt P21462)	=	8.28
COc1cc(F)c([C@H]2[C@H](NC(=O)c3ccc(OC(F)F)cc3)C(=O)N(c3cccn(CCO)c3=O)[C@H]2C)c(F)c1 [Example 445]	human FPR1 (Homo sapiens (Human), UniProt P21462)	=	6.21
COc1cc(F)c([C@@H]2CN(c3nc(NC4CCOC4)ccc3F)C(=O)[C@H]2NC(=O)c2ccc(OC(F)(F)F)cc2)c(F)c1 (stereo partly shown) [Example 62]	human FPR1 (Homo sapiens (Human), UniProt P21462)	=	6.96
COc1cc(F)c([C@@H]2CN(c3nn(C4COC4)c(=O)cc3C)C(=O)[C@H]2NC(=O)c2ccc(OC(F)F)cc2)c(F)c1 [Example 628]	human FPR1 (Homo sapiens (Human), UniProt P21462)	=	7.23

Data origin, for the record: patent US20230348426A1
